Assay: total protein half-life in vivo (active degradation + dilution); higher = more stable protein
Conditions: wild type E. coli NCM3722; growth: C-lim chemostat; doubling time 12 h
Assign class by total protein half-life in vivo: not lower than 10 h means true (1); lower than 10 h means false (0).

Known results for sequences:
{"MACROMOLECULE_SEQUENCE": "MKHDHFVVQSPDKPAQQLLLLFHGVGDNPVAMGEIGNWFAPLFPDALVVSVGGAEPSGNPAGRQWFSVQGITEDNRQARVDAIMPTFIETVRYWQKQSGVGANATALIGFSQGAIMVLESIKAEPGLASRVIAFNGRYASLPETASTATTIHLIHGGEDPVIDLAHAVAAQEALISAGGDVTLDIVEDLGHAIDNRSMQFALDHLRYTIPKHYFDEALSGGKPGDDDVIEMM", "DISCRETE_LABEL": "false (0)"}
{"MACROMOLECULE_SEQUENCE": "MKFKVIALAALMGISGMAAQANELPDGPHIVTSGTASVDAVPDIATLAIEVNVAAKDAATAKKQADERVAQYISFLELNQIAKKDISSANLRTQPDYDYQDGKSILKGYRAVRTVEVTLRQLDKLNSLLDGALKAGLNEIRSVSLGVAQPDAYKDKARKAAIDNAIHQAQELANGFHRKLGPVYSVRYHVSNYQPSPMVRMMKADAAPVSAQETYEQAAIQFDDQVDVVFQLEPVDQQPAKTPAAQ [P0ADS6]", "DISCRETE_LABEL": "true (1)"}
{"MACROMOLECULE_SEQUENCE": "MNYSLKQLKVFVTVAQEKSFSRAGERIGLSQSAVSHSVKELENHTGVRLLDRTTREVVLTDAGQQLALRLERLLDELNSTLRDTGRMGQQLSGKVRVAASQTISAHLIPQCIAESHRRYPDIQFVLHDRPQQWVMESIRQGDVDFGIVIDPGPVGDLQCEAILSEPFFLLCHRDSALAVEDYVPWQALQGAKLVLQDYASGSRPLIDAALARNGIQANIVQEIGHPATLFPMVAAGIGISILPALALPLPEGSPLVVKRITPVVERQLMLVRRKNRSLSTAAEALWDVVRDQGNALMAGREGDPLYQI [P0ACR7]", "DISCRETE_LABEL": "true (1)"}

We now examine a further sequence.
Inquiry: Reported total protein half-life in vivo reaches at least 10 h for MLKRFFITGTDTSVGKTVVSRALLQALASQGKTVAGYKPVAKGSKETPEGLRNKDALVLQSVSTIELPYEAVNPIALSEEESSVAHSCPINYTLISNGLANLTEKVDHVVVEGTGGWRSLMNDLRPLSEWVVQEQLPVLMVVGIQEGCINHALLTAQAIANDGLPLIGWVANRINPGLAHYAEIIDVLGKKLPAPLIGELPYLPRAEQRELGQYIRLAMLRSVLAVDRVTV [P0A6E9] ?
Reply text: false (0)

---

Experiment: total protein half-life in vivo (active degradation + dilution); higher = more stable protein
Details: wild type E. coli NCM3722; growth: C-lim chemostat; doubling time 6 h
# total protein half-life in vivo values compiled below

So for MKKKILAFGLISALFCSTPAMADMNRTTKGALLGAGVGLLTGNGVNGVLKGAAVGAGVGAVTEKGRDGKNARKGAKVGAAVGAVTGVLTGNGLEGAIKGAVIGGTGGAILGKMK [Q7DFV3] , the logged total protein half-life in vivo turned out to be 1.67 h

So for MKQTQRHNGIIELVKQQGYVSTEELVEHFSVSPQTIRRDLNELAEQNLILRHHGGAALPSSSVNTPWHDRKATQTEEKERIARKVAEQIPNGSTLFIDIGTTPEAVAHALLNHSNLRIVTNNLNVANTLMVKEDFRIILAGGELRSRDGGIIGEATLDFISQFRLDFGILGISGIDSDGSLLEFDYHEVRTKRAIIENSRHVMLVVDHSKFGRNAMVNMGSISMVDAVYTDAPPPVSVMQVLTDHHIQLELC [P0ACL0] , the logged total protein half-life in vivo turned out to be 5.9 h

---

Experiment: total protein half-life in vivo (active degradation + dilution); higher = more stable protein
Conditions: wild type E. coli NCM3722; growth: N-lim chemostat; doubling time 6 h
OBSERVED_PROPERTY: total protein half-life in vivo (h)
Give your result in h as a bare value.

So for MIKSALLVLEDGTQFHGRAIGATGSAVGEVVFNTSMTGYQEILTDPSYSRQIVTLTYPHIGNVGTNDADEESSQVHAQGLVIRDLPLIASNFRNTEDLSSYLKRHNIVAIADIDTRKLTRLLREKGAQNGCIIAGDNPDAALALEKARAFPGLNGMDLAKEVTTAEAYSWTQGSWTLTGGLPEAKKEDELPFHVVAYDFGAKRNILRMLVDRGCRLTIVPAQTSAEDVLKMNPDGIFLSNGPGDPAPCDYAITAIQKFLETDIPVFGICLGHQLLALASGAKTVKMKFGHHGGNHPVKDVEKNVVMITAQNHGFAVDEATLPANLRVTHKSLFDGTLQGIHRTDKPAFSFQGHPEASPGPHDAAPLFDHFIELIEQYRKTAK [P0A6F1] , the logged total protein half-life in vivo turned out to be 4.47

---

Experiment: total protein half-life in vivo (active degradation + dilution); higher = more stable protein
Conditions: E. coli NCM3722 delta-hslV; growth: N-lim chemostat; doubling time 6 h
OBSERVED_PROPERTY: total protein half-life in vivo (h)
Give your result in h as a bare value.

{"MACROMOLECULE_SEQUENCE": "MTQPVLDIQQLHLSFPGFNGDVHALNNVSLQINRGEIVGLVGESGSGKSVTAMLIMRLLPTGSYCVHRGQISLLGEDVLNAREKQLRQWRGARVAMIFQEPMTALNPTRRIGLQMMDVIRHHQPISRREARAKAIDLLEEMQIPDAVEVMSRYPFELSGGMRQRVMIALAFSCEPQLIIADEPTTALDVTVQLQVLRLLKHKARASGTAVLFISHDMAVVSQLCDSVYVMYAGSVIESGVTADVIHHPRHPYTIGLLQCAPEHGVPRQLLPAIPGTVPNLTHLPDGCAFRDRCYAAGAQCENVPALTACGDNNQRCACWYPQQEVISV", "OBSERVED_RESULT": 4.03}
{"MACROMOLECULE_SEQUENCE": "MDLRRFITLKTVVEEGSFLRASQKLCCTQSTVTFHIQQLEQEFSVQLFEKIGRRMCLTREGKKLLPHIYELTRVMDTLREAAKKESDPDGELRVVSGETLLSYRMPQVLQRFRQRAPKVRLSLQSLNCYVIRDALLNDEADVGVFYRVGNDDALNRRELGEQSLVLVASPQIADVDFTEPGRHNACSFIINEPQCVFRQIFESTLRQRRITVENTIELISIESIKRCVAANIGVSYLPRFAVAKELECGELIELPFGEQSQTITAMCAHHAGKAVSPAMHTFIQCVEESFVAG", "OBSERVED_RESULT": 4.13}

Note: attention shifts to another entry.
So for MKLFAQGTSLDLSHPHVMGILNVTPDSFSDGGTHNSLIDAVKHANLMINAGATIIDVGGESTRPGAAEVSVEEELQRVIPVVEAIAQRFEVWISVDTSKPEVIRESAKVGAHIINDIRSLSEPGALEAAAETGLPVCLMHMQGNPKTMQEAPKYDDVFAEVNRYFIEQIARCEQAGIAKEKLLLDPGFGFGKNLSHNYSLLARLAEFHHFNLPLLVGMSRKSMIGQLLNVGPSERLSGSLACAVIAAMQGAHIIRVHDVKETVEAMRVVEATLSAKENKRYE [P0AC13] , the logged total protein half-life in vivo turned out to be 4.96

---

Assay: total protein half-life in vivo (active degradation + dilution); higher = more stable protein
Conditions: wild type E. coli NCM3722; growth: C-lim chemostat; doubling time 3 h
Assign class by total protein half-life in vivo: not lower than 3 h means condition met; lower than 3 h means condition not met.

{"MACROMOLECULE_SEQUENCE": "MAIDENKQKALAAALGQIEKQFGKGSIMRLGEDRSMDVETISTGSLSLDIALGAGGLPMGRIVEIYGPESSGKTTLTLQVIAAAQREGKTCAFIDAEHALDPIYARKLGVDIDNLLCSQPDTGEQALEICDALARSGAVDVIVVDSVAALTPKAEIEGEIGDSHMGLAARMMSQAMRKLAGNLKQSNTLLIFINQIRMKIGVMFGNPETTTGGNALKFYASVRLDIRRIGAVKEGENVVGSETRVKVVKNKIAAPFKQAEFQILYGEGINFYGELVDLGVKEKLIEKAGAWYSYKGEKIGQGKANATAWLKDNPETAKEIEKKVRELLLSNPNSTPDFSVDDSEGVAETNEDF [P0A7G6]", "DISCRETE_LABEL": "condition not met"}
{"MACROMOLECULE_SEQUENCE": "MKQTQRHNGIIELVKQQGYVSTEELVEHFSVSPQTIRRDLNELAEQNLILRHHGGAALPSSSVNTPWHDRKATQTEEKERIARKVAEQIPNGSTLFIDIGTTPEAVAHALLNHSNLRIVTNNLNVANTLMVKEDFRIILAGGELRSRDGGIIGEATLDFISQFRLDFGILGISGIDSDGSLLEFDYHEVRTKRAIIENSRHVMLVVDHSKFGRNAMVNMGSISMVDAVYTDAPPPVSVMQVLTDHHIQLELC [P0ACL0]", "DISCRETE_LABEL": "condition not met"}
{"MACROMOLECULE_SEQUENCE": "MFHRLWTLIRKELQSLLREPQTRAILILPVLIQVILFPFAATLEVTNATIAIYDEDNGEHSVELTQRFARASAFTHVLLLKSPQEIRPTIDTQKALLLVRFPADFSRKLDTFQTAPLQLILDGRNSNSAQIAANYLQQIVKNYQQELLEGKPKPNNSELVVRNWYNPNLDYKWFVVPSLIAMITTIGVMIVTSLSVAREREQGTLDQLLVSPLTTWQIFIGKAVPALIVATFQATIVLAIGIWAYQIPFAGSLALFYFTMVIYGLSLVGFGLLISSLCSTQQQAFIGVFVFMMPAILLSGYVSPVENMPVWLQNLTWINPIRHFTDITKQIYLKDASLDIVWNSLWPLLVITATTGSAAYAMFRRKVM [P0AFP9]", "DISCRETE_LABEL": "condition met"}
{"MACROMOLECULE_SEQUENCE": "MLIIETLPLLRQQIRRLRMEGKRVALVPTMGNLHDGHMKLVDEAKARADVVVVSIFVNPMQFDRPEDLARYPRTLQEDCEKLNKRKVDLVFAPSVKEIYPNGTETHTYVDVPGLSTMLEGASRPGHFRGVSTIVSKLFNLVQPDIACFGEKDFQQLALIRKMVADMGFDIEIVGVPIMRAKDGLALSSRNGYLTAEQRKIAPGLYKVLSSIADKLQAGERDLDEIITIAGQELNEKGFRADDIQIRDADTLLEVSETSKRAVILVAAWLGDARLIDNKMVELA", "DISCRETE_LABEL": "condition met"}

We now examine a further sequence.
Inquiry: Reported total protein half-life in vivo reaches at least 3 h for MENIMNNPVIGVVMCRNRLKGHATQTLQEKYLNAIIHAGGLPIALPHALAEPSLLEQLLPKLDGIYLPGSPSNVQPHLYGENGDEPDADPGRDLLSMAIINAALERRIPIFAICRGLQELVVATGGSLHRKLCEQPELLEHREDPELPVEQQYAPSHEVQVEEGGLLSALLPECSNFWVNSLHGQGAKVVSPRLRVEARSPDGLVEAVSVINHPFALGVQWHPEWNSSEYALSRILFEGFITACQHHIAEKQRL ?
Reply text: condition not met
